target: human liver GK (Homo sapiens, UniProt P35557); construct: GST (glutathione S-transferase) (N); assay: GK activation test; details: test compound concentration needed to activate 50% of maximum activation ability; 4 mM 14C-labeled glucose, 2 mM ATP, room temperature, 20 minutes
Sequence (P35557 1-466 isoform P35557-2): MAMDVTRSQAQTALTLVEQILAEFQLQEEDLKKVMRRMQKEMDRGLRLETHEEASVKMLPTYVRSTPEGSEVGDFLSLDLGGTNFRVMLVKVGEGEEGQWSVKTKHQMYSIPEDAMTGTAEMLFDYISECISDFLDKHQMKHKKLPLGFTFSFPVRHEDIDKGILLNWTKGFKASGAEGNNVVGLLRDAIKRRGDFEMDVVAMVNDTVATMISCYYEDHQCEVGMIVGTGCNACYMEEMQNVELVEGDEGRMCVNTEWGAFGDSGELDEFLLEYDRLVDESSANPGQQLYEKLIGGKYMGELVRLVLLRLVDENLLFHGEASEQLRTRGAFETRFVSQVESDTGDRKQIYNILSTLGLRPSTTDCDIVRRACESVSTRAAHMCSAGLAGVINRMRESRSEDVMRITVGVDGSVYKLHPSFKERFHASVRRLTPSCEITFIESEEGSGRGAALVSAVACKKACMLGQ
Answer each item with its documented EC50.

-- ask Please report EC50 for the following compound: O=C1CC[C@H](CC(c2ccc(OC(F)F)c(Cl)c2)c2ccc(C3CC3)c(=O)[nH]2)N1 (single isomer, unassigned) [Example 4-356]
-- reply 10 to 500 nM

-- ask Please indicate EC50 recorded for Cc1cc(C(C[C@H]2CCC(=O)N2)c2ccc(C3CC3)c(=O)[nH]2)ccc1Cl (single isomer, unassigned) [Example 4-213]
-- reply 500 to 3000 nM

-- ask Fill in EC50 for record CCN(CC)CCCOc1ccc(/C(=C\[C@H]2CCC(O)C2)c2ccc(C3CC3)c(=O)[nH]2)cc1Cl (stereo partly shown)
-- reply 500 to 3000 nM

-- ask Using known records, supply EC50 for CC(C)(C)c1ccc(/C(=C\[C@@H]2CCC(=O)N2)c2ccc(Cl)c(=O)[nH]2)cc1
-- reply 3000 to 10000 nM
